Hey, just so you know, these numbers are from patent US20220089592A1.

biological target: IRAK4 (Homo sapiens, UniProt Q9NWZ3); assay: 2-hour 1 mM ATP IRAK4 Biochemical assay (as above, but with 100 pM IRAK4 and 1 mM ATP); conditions: IRAK4 MSD BIOCHEMICAL (1 mM ATP) IC50 (μM), 100 pM IRAK4, 2 hours
So basically: is IC50 under 0.01 µM? Then Y. Not under? Then N.

>>> df
                                   compound  group_label
0  O=C(Nc1cn2cc(C3CCOCC3)nc2cc1OCC1CC(F)(F)C1)c1cccc(C(F)F)n1 [Example 191]            Y
1  O=C(Nc1cn2cc(C3CCOCC3)nc2cn1)c1cccc2c1OCC2 [Example 275]            N
2  O=C(Nc1cn2cc(C3CC4(CCOC4)C3)nc2cn1)c1cccc(C(F)F)n1 (stereo not drawn) [Example 273]            N

-- ask Lab note: confirm whether the reported IC50 for this compound is below 0.01 µM, equality not counting. compound: CCOc1cc2nc(C3CCN(C(C)=O)CC3)cn2cc1NC(=O)c1cccc(C(F)(F)F)n1 [Example 72]
-- reply Y

-- ask Threshold test, IC50 < 0.01 µM: CCOc1cc2nc(C3CCOCC3)cn2cc1NC(=O)c1cccc(OC(F)F)n1 [Example 362]
-- reply N

---

# Lookup of reported log10(IC50) keyed by entry
molecular target: IRAK4 (Homo sapiens); test: 2-hour 10 μM ATP Biochemical Assay (MesoScale Detection format; IRAK4 phosphorylation of biotin labeled IRAK1 activation loop peptide); details: IRAK4 MSD BIOCHEMICAL (10 μM ATP) IC50 (μM), 1 nM IRAK4, 2 hours
Remember, log10 of IC50, in µM.

// below: answered compounds
In [3]: df
Out[3]:
                                   compound  assay_result
0  CCOc1nc2nc(C3CC3)cn2cc1NC(=O)c1cccc(C(F)F)n1 [Example 243]         -2.52
1  O=C(Nc1cn2cc(C3CC3)nc2cc1OCC1CCC1)c1cccc(C(F)F)n1 [Example 5]         -2.52

-- ask Could you share what log10(IC50) was measured for O=C(Nc1cc(O)c2nc(C3CCOCC3)cn2c1)c1cccc(C(F)(F)F)n1 [Example 104] , tested on IRAK4 (Homo sapiens)?
-- reply -0.89

-- ask Lab note: need log10(IC50) for CCOc1cc2nc(C3CCOCC3)cn2cc1NC(=O)c1cccc(C)c1F [Example 214] on IRAK4 (Homo sapiens), anyone have it?
-- reply -2.52

---

Target: IRAK4 (Homo sapiens)
Sequence (Q9NWZ3 1-460): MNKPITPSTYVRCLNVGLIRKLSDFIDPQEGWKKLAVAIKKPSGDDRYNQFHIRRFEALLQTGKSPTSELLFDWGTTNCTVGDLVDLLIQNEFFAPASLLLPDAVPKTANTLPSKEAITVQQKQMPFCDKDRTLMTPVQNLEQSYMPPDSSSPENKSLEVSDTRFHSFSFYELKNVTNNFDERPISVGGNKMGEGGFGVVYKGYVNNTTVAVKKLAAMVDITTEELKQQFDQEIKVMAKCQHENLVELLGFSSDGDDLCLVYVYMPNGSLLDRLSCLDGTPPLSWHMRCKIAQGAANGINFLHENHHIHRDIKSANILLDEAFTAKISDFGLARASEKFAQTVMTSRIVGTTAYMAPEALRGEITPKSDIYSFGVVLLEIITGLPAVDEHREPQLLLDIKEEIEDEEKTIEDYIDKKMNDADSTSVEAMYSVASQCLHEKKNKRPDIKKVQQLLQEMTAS
Assay: 2-hour 10 μM ATP Biochemical Assay (MesoScale Detection format; IRAK4 phosphorylation of biotin labeled IRAK1 activation loop peptide)
Settings: IRAK4 MSD BIOCHEMICAL (10 μM ATP) IC50 (μM), 1 nM IRAK4, 2 hours
Observed Property: log10(IC50) (log10 of the value in µM)
// do not treat as linear: log10 of IC50, unit µM

Use these answered entries as a reference point.
                                   molecule  assay_result
0  CCOc1cc2nc(C3CCOCC3)cn2cc1NC(=O)c1csc(C(F)(F)F)n1         -3.00
1  CCOc1cc2nc(C(C)(C)O)cn2cc1NC(=O)c1cccc(C(F)F)n1         -2.10
2  CCOc1cc2nc(C3CCOCC3)cn2cc1NC(=O)c1ccn(C2CC2(F)F)n1 (centres unmarked)         -2.30
3  CCOc1cc2nc(C3CC3)cn2cc1NC(=O)c1cccc(OC)n1         -1.57

-- ask Value lookup for log10(IC50); key = CCOc1cc2nc([C@H]3C[C@H](OC)C3)cn2cc1NC(=O)c1cccc(C(F)F)n1
-- reply -3.00

-- ask Would you kindly share the measured log10(IC50) for CCOc1cc2nc(CC)cn2cc1NC(=O)c1cccc2c1OCCN2C ?
-- reply -1.80

-- ask // returns reported log10(IC50) for input O=C(Nc1cnc2nc(C3CC3)cn2c1)c1cccc(C(F)(F)F)n1
-- reply -1.12

-- ask I'd like to know its log10(IC50). The molecule in question is CCOc1cc2nc(C3CCOCC3)cn2cc1NC(=O)c1cccc(C)n1
-- reply -3.00

-- ask Any idea what its log10(IC50) is? The molecule is CCOc1cc2nc(C[C@@H]3CCOC3)cn2cc1NC(=O)c1cccc(C(F)F)n1 (single isomer, unassigned)
-- reply -3.00

-- ask Request the reported log10(IC50) associated with CCOc1cc2nc(C3CCOCC3)cn2cc1NC(=O)c1cccc(C(F)F)n1
-- reply -3.00

-- ask Quick one: log10(IC50) of CCOc1cc2nc(C3CCOCC3)cn2cc1NC(=O)c1ccn(CC)n1 ?
-- reply -2.52

---

Biological target: IRAK4 (Homo sapiens)
Sequence (Q9NWZ3 1-460): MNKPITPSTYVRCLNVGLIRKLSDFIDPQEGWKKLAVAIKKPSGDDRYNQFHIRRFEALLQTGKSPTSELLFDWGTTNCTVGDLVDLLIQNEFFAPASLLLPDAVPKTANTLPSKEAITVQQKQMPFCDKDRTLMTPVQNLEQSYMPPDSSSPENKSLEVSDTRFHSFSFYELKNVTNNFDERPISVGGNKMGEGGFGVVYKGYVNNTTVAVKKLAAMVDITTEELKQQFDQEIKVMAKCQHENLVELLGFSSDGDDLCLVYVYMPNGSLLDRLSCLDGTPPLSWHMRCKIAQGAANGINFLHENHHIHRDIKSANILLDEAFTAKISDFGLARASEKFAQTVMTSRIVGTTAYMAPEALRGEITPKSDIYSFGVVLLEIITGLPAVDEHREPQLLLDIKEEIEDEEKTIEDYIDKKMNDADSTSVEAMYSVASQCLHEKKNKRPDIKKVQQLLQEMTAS
Experiment: 2-hour 10 μM ATP Biochemical Assay (MesoScale Detection format; IRAK4 phosphorylation of biotin labeled IRAK1 activation loop peptide)
Conditions: IRAK4 MSD BIOCHEMICAL (10 μM ATP) IC50 (μM), 1 nM IRAK4, 2 hours
Rule: IC50 below 0.003 µM gives t, anything at or above gives f.

-- ask Given CCOc1cc2nc(C(C)(C)C#N)cn2cc1NC(=O)c1cccc(C(F)CF)n1 (stereo not drawn) [Example 245] , is recorded IC50 strictly lower than 0.003 µM?
-- reply t

---

target: IRAK4 (Homo sapiens); assay: 2-hour 1 mM ATP IRAK4 Biochemical assay (as above, but with 100 pM IRAK4 and 1 mM ATP); details: IRAK4 MSD BIOCHEMICAL (1 mM ATP) IC50 (μM), 100 pM IRAK4, 2 hours
Observed Property: IC50 (µM)
Please give a number only; it is taken to be in µM.

Below: 3 molecules and their reported IC50.
>>> print(df.to_string())
                                   molecule  units  assay_result
0  CCOc1cc2nc(C3CCOCC3)cn2cc1NC(=O)c1cccc(N(C)C)n1 [Example 237]     µM         0.005
1  CCOc1nc2nc(C3CC3)cn2cc1NC(=O)c1cccc(C(F)F)n1 [Example 243]     µM         0.014
2  CC(C)Oc1cc2nc(C3CCOCC3)cn2cc1NC(=O)c1coc(C2CCOCC2)n1 [Example 387, 2,2,2-trifluoroacetate]     µM         0.001

-- ask API: value(readout=IC50, system=IRAK4 (Homo sapiens)) for record CC12CC(c3cn4cc(NC(=O)c5cccc6ccnn56)cc(OC(F)F)c4n3)(CO1)C2 [Example 422, 2,2,2-trifluoroacetate]
-- reply 0.012

-- ask Query IC50 on IRAK4 (Homo sapiens) for COc1ncccc1C(=O)Nc1cn2cc(C3CCOCC3)nc2c(OC)n1 [Example 458, 2,2,2-trifluoroacetate]
-- reply 0.036

-- ask Query for IRAK4 (Homo sapiens): what IC50 does the record show for COc1cc2nc(C34COC(C)(C3)C4)cn2cc1NC(=O)c1cccc(C(F)F)n1 [Example 515, 2,2,2-trifluoroacetate] ?
-- reply 0.001

-- ask What is its IC50 for IRAK4 (Homo sapiens)? Entry: CCOc1cc2nc(C3CCOCC3)cn2cc1NC(=O)c1ccn(C(F)F)n1 [Example 230]
-- reply 0.003

-- ask Value wanted: IC50 (IRAK4 (Homo sapiens)) of entry COc1nc(NC(=O)c2cccc(C(F)F)n2)cn2cc(C3C4COCC43)nc12 (stereo not drawn) [Example 551]
-- reply 0.026

-- ask Find IC50 (IRAK4 (Homo sapiens)) for the entry CC12CC(c3cn4cc(NC(=O)c5cccc(C(F)F)n5)nc(OCc5ccccc5)c4n3)(CO1)C2 [Example 199]
-- reply 0.016

-- ask Identify the measured IC50 of CCOc1cc2nc([C@H]3C[C@@H](O)C3)cn2cc1NC(=O)c1cccc(C(F)F)n1 [Example 97] for IRAK4 (Homo sapiens).
-- reply 0.002

-- ask API: value(readout=IC50, system=IRAK4 (Homo sapiens)) for record CC12CC(c3cn4cc(NC(=O)c5cccc(C(F)F)n5)c(OC(F)F)cc4n3)(CO1)C2 [Example 395, 2,2,2-trifluoroacetate]
-- reply 0.001

-- ask Can you look up IC50 on IRAK4 (Homo sapiens) for O=C(Nc1cn2cc(C3CCOCC3)nc2cc1OC1CCOC1)c1cccc(C(F)F)n1 (stereo not drawn) [Example 183] ?
-- reply 0.001
